# assayed-system: T1, Human FKBP52 (52-kDa FK506-binding protein) (human, UniProt Q02790 1-459)
# T1 sequence (looked up): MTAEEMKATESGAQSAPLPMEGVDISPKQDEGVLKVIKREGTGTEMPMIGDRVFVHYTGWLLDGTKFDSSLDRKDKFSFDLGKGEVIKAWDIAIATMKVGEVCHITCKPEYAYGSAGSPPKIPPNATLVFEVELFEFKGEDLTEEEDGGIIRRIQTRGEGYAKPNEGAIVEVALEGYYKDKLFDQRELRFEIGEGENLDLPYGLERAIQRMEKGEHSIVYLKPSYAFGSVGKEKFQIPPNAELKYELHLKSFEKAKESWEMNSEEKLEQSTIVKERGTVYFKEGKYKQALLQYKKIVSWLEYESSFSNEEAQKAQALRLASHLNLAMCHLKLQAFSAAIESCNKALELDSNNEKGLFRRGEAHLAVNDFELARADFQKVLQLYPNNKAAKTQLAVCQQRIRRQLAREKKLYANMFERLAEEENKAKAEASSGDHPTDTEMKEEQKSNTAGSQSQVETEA
# experiment: fluorescence polarisation
Where no end group is shown, it is not given here. 5‑Fam = 5-carboxyfluorescein; Ahx = NCCCCCC(=O)O
endpoint: Kd

Per the records, this binder ( {5‑Fam-Ahx}-GSGPTMEEVD [chimeric mutant Hsp72 tracer (Fam-GSGPTMEEVD)] ) has Kd equal to > 75 µM

Per the records, this binder ( {5‑Fam-Ahx}-GSGPTIEEVD [Hsp72 C-terminal tracer (Fam-GSGPTIEEVD)] ) has Kd equal to > 75 µM

Per the records, this binder ( {5‑Fam-Ahx}-DDTSRIEEVD [mutant Hsp90α tracer (Fam-DDTSRIEEVD)] ) has Kd equal to > 25 µM

Per the records, this binder ( {5‑Fam-Ahx}-SSGPTIEEVD [Hsc70 C-terminal tracer (Fam-SSGPTIEEVD)] ) has Kd equal to > 75 µM

Per the records, this binder ( {5‑Fam-Ahx}-DDTSRMEKVD [Hsp90α Lys mutant tracer (Fam-DDTSRMEKVD)] ) has Kd equal to > 25 µM
